measurement-target: UniProtKB Q04609
Sequence (Q04609 whole entry): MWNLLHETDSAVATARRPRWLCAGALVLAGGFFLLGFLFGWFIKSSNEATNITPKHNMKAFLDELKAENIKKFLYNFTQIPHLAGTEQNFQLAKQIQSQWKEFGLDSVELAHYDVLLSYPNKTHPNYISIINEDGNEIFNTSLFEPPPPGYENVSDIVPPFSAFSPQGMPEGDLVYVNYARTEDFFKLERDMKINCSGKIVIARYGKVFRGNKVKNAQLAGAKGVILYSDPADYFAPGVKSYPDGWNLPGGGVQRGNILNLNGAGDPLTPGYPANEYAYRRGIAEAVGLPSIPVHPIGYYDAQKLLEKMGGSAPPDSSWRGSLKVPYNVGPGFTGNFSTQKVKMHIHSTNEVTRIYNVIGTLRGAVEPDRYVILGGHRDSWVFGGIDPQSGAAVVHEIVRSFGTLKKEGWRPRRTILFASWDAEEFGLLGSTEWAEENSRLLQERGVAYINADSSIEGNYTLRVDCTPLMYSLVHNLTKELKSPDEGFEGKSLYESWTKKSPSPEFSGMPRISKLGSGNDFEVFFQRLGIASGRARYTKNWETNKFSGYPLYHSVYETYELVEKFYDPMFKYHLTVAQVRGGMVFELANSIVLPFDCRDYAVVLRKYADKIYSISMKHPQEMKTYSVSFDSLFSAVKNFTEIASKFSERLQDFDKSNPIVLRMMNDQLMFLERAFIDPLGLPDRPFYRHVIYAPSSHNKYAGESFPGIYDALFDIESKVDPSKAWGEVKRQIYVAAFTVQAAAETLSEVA
method: PSMA inhibition assay
Format: biochemical
measurement-parameters: read-out: Ki 95% confidence intervals; LNCaP cell lysates, 4 μM NAAG
pKi: −log10 of the molar value.

{"compound": "O=C(O)CCC(NC(=O)NC(CCCCNC(=O)CCc1cn(CCF)nn1)C(=O)O)C(=O)O (stereo not shown)", "measurement-target": "UniProtKB Q04609", "pKi": "7.72 to 8.06"}

====

method: Octanol-water partition coefficient
Type: physicochemical
measurement-parameters: pH 7.4

{"molecule": "O=C(O)CCC(NC(=O)NC(CCCCNC(=O)c1ccc([18F])nc1)C(=O)O)C(=O)O (stereo not shown) [[^18F]DCFPyL, reference compound]", "logP": -3.27}
